Tested on: SW-620 colon
Assay: NCI-60 one-dose screen, 48 h (100 = growth as untreated, 0 = no growth, -100 = all killed)
Conditions: 10 µM unless noted
Protocol: Growth inhibition of the SW-620 human tumor cell line is measured as a screen for anti-cancer activity. Cells are grown in 96 well plates and exposed to the test compound for 48 hours. Compounds are tested at a single concentration, which is 10^-5 M for most compounds. The reported endpoint is percent growth (GI% or GIPRCNT), where numbers from 0 - 100% represent growth inhibition, and numbers from -100% - 0 represent cell death. For example, a value of 40 represents 60% growth inhibition. […]
This is part of a sample that, as a whole, favours compounds with a hit. Of some 83,000 tested, about 20% had one in any assay.
Consider the following compounds; for each one, report its growth.
Dear colleague, please return just the value in %, with no unit written.

In: Recorded growth for COc1ccc(CCNC(=O)COc2cc3c(Nc4ccc(F)c(Cl)c4)ncnc3cc2OC)cc1OC , please?
Out: 101

In: Recorded growth for C[C@]12CCc3c(ccc4cc(O)ccc34)[C@@H]1C[C@H](O)[C@@H]2O , please?
Out: 96.4

In: Recorded growth for Cc1ccc(-c2nc(SCC(=O)c3ccc(C#N)cc3)[nH]c(=O)c2C#N)cc1 , please?
Out: 112

In: Recorded growth for CC(=O)OC[C@]12CCC(C)(C)C=C1[C@H]1CC[C@@H]3[C@@]4(C)CCCNC(C)(C)[C@@H]4CC[C@@]3(C)[C@]1(C)CC2 , please?
Out: 49.9

In: Recorded growth for COc1cc(CO)cc2cc3ccccc3nc12 , please?
Out: 102

In: Recorded growth for O=C([C@H]1C[C@H]1c1ccc(S(F)(F)(F)(F)F)cc1)N1CCN(c2cc(Cl)ccc2C(F)(F)F)CC1 , please?
Out: 95.9

In: Recorded growth for COC(=O)c1nc(-c2ccccc2)oc1S(=O)(=O)N(C)CCO , please?
Out: 40.4

In: Recorded growth for Cc1cc(N2CCN(CC(=O)Nc3ccc4c(ccn4Cc4ccccc4)c3)CC2)nc(N2CCCCCC2)n1 , please?
Out: 56.8

In: Recorded growth for COc1cc2nc3cc([N+](=O)[O-])ccc3c(NCCNCC(C)(C)O)c2cc1OC , please?
Out: -15.2

###

Consider the following compounds; for each one, report its growth.
Test system: EKVX NSCLC
Experiment: NCI-60 one-dose screen, 48 h (100 = growth as untreated, 0 = no growth, -100 = all killed)
Conditions: 10 µM unless noted
Method: Growth inhibition of the EKVX human Non-Small Cell Lung tumor cell line is measured as a screen for anti-cancer activity. Cells are grown in 96 well plates and exposed to the test compound for 48 hours. Compounds are tested at a single concentration, which is 10^-5 M for most compounds. The reported endpoint is percent growth (GI% or GIPRCNT), where numbers from 0 - 100% represent growth inhibition, and numbers from -100% - 0 represent cell death. […]
The panel holds about 83,000 compounds, 20% with a hit somewhere; the sample as a whole holds those more often. The source made the active and inactive calls. The calls were made as follows: active = growth percent below 10; inactive = the rest.

In: Recorded growth for Nc1c(C(=O)Nc2ccncc2)sc2nc3c(cc12)CCCCCCCC3 , please?
Out: -31.2% (active)

In: Recorded growth for CC(Sc1ccccc1)C(=O)O (stereo not given) , please?
Out: 94.2% (inactive)

In: Recorded growth for O=C(CN1C(=O)S/C(=C\C(Cl)=C\c2ccccc2)C1=O)NC1C=CS(=O)(=O)C1 (stereo not given) , please?
Out: 17.7% (inactive)

In: Recorded growth for Nc1n[nH]c2cccc(C#Cc3cccc(C(=O)Nc4ccc(CN5CCOCC5)c(C(F)(F)F)c4)c3)c12 , please?
Out: 63.4% (inactive)

In: Recorded growth for Fc1ccc(NC(c2ccc(F)cc2)C2CCN(CCCCc3ccccc3)CC2)cc1 (stereo not given) , please?
Out: 52.9% (inactive)

In: Recorded growth for Clc1ccc(Nc2nc(Nc3ccc(Cl)cc3)nc(Nc3ccc(-c4cc(-c5cccc(Cl)c5)on4)cc3)n2)cc1 , please?
Out: 82.9% (inactive)

In: Recorded growth for COc1ccc2c(O)c(/C=C3\N=Nc4nc(C)ccc43)oc2c1CC1CCNCC1 , please?
Out: 63.4% (inactive)

In: Recorded growth for N#CSc1c[nH]c2ccc(/C=C/C(=O)/C=C(/C=C/c3ccc4[nH]cc(SC#N)c4c3)OB(F)F)cc12 , please?
Out: -5.64% (active)

In: Recorded growth for COc1ccc(Nc2ncnc3ccc(-c4cncc(NS(C)(=O)=O)c4)cc23)cc1Cl , please?
Out: 67.3% (inactive)

In: Recorded growth for C#CCn1cnc2cnc(Nc3cccc(NC(=O)CCl)c3)nc21 , please?
Out: 69.1% [6.25 µM] (inactive)
